molecular target: BuChE (Homo sapiens, UniProt P06276); experiment: Michaelis-Menten constant and maximum reaction velocity measurement (Lineweaver-Burk plot); assay type: biochemical; conditions: room temperature, λ=285 nm, average, N=3
Sequence (P06276 29-602): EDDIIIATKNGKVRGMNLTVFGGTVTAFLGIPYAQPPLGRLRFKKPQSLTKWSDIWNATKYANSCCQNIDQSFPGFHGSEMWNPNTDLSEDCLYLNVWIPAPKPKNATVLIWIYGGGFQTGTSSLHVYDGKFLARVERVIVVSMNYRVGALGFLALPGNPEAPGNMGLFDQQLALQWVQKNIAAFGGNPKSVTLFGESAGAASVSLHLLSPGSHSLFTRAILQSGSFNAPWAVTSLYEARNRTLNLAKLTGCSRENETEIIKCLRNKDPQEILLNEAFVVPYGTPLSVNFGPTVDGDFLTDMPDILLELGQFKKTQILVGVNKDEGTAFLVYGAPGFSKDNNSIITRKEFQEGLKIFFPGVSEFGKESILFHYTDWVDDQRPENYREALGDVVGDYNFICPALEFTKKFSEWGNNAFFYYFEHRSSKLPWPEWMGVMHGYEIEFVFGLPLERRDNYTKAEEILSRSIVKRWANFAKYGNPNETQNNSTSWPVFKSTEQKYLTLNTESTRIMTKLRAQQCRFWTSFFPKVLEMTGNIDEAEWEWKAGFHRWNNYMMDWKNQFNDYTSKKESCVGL
READOUT TYPE: Vmax (relative maximum reaction velocity)

Reported Vmax (relative maximum reaction velocity), compound CN1CC[C@H](OC(=O)c2ccc(C#N)cc2)C1 [Example 15] : ____
16 ± 4 ΔA min^−1

More entries:
Reported Vmax (relative maximum reaction velocity), compound CN1CCC(OC(=O)c2ccc(F)cc2)CC1 [Example 8] : ____
36 ± 6 ΔA min^−1

Reported Vmax (relative maximum reaction velocity), compound CN1CC[C@H](OC(=O)c2ccc(I)cc2)C1 [Example 14] : ____
6.1 ± 0.5 ΔA min^−1

Reported Vmax (relative maximum reaction velocity), compound CN1CCC(OC(=O)c2ccc(I)cc2)CC1 [Example 7, 1′-methylpiperidin-4′-yl 4-iodobenzoate] : ____
8.4 ± 0.4 ΔA min^−1

Reported Vmax (relative maximum reaction velocity), compound CN1CCC(OC(=O)c2ccccc2)CC1 [Example 10, 1′-methylpiperidin-4′-yl benzoate] : ____
6.8 ± 0.5 ΔA min^−1

Reported Vmax (relative maximum reaction velocity), compound O=C(OCc1cccc(=O)[nH]1)c1ccc(I)cc1 [Example 4] : ____
9.7 ± 1.7 ΔA min^−1

Reported Vmax (relative maximum reaction velocity), compound CN1CC[C@@H](OC(=O)c2ccc(I)cc2)C1 [Example 16] : ____
10 ± 9 ΔA min^−1

Reported Vmax (relative maximum reaction velocity), compound CN1CCC(OC(=O)c2ccc(C#N)cc2)CC1 [Example 9, 1′-methylpiperidin-4′-yl 4-cyanobenzoate] : ____
12 ± 3 ΔA min^−1

Reported Vmax (relative maximum reaction velocity), compound CN1CC[C@@H](OC(=O)c2ccc(C#N)cc2)C1 [Example 17] : ____
30 ± 3 ΔA min^−1
